B1: EPB41L3 (parent)
chain: FRFAPNHTKELEDKVIELHKSHRG

Variants of: B1
assayRemarks: protein stability index of a GFP-peptide fusion (GPS, HEK-293T) (PSI 1-6); higher = more stable;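 also: lentivirally expressed fusions sorted by FACS into six bins by GFP to DsRed ratio, PSI derived from sequencing read proportions per bin multiplied by bin number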
conditionSummary: c terminus: a fixed tail appended
Assign class by protein stability index: not lower than 3 means 1.0; lower than 3 means 0.0.

Use these answered entries as a reference point.
Problem: Determine whether this variant has protein stability index no lower than 3: "L18E"
Result: 0.0

Problem: Quick check: does "E12D" have protein stability index greater than or equal to 3?
Result: 0.0

Problem: Reported protein stability index reaches at least 3 for "N6T" ?
Result: 0.0

Problem: Please indicate if the recorded protein stability index for "D13Q" meets or exceeds 3.
Result: 1.0

Problem: Is protein stability index at least 3? Consider "R23N"
Result: 0.0

Problem: Kindly determine if protein stability index recorded for "H19K" is above or exactly 3.
Result: 0.0

Problem: Test whether the variant "K9E" records protein stability index of 3 or higher.
Result: 0.0

Problem: // inclusive: protein stability index at least 3? input: "K20N"
Result: 0.0

Problem: Is protein stability index at least 3? Consider "H19A"
Result: 0.0

Problem: Dear colleague, could you confirm whether "K9Q" has protein stability index at or above 3?
Result: 0.0

***
Problem: protein stability index >= 3 for "H22T" ?
Result: 0.0

Problem: Given "S21N" , state whether its protein stability index is at least 3.
Result: 0.0

Problem: Say whether "R2N" shows protein stability index of 3 or more.
Result: 1.0

Problem: Textbook exercise: given the entry "I16C" , state whether its protein stability index is greater than or equal to 3.
Result: 0.0

Problem: Is reported protein stability index greater than or equal to 3 here: "R2Y"
Result: 1.0

Problem: Determine whether this variant has protein stability index no lower than 3: "N6H"
Result: 0.0

Problem: Given the entry "R23A" , answer whether its protein stability index meets or surpasses 3.
Result: 0.0

Problem: Hello, I need to know if "L18T" has measured protein stability index not below 3. Thanks!
Result: 1.0

Problem: Does the reported protein stability index for "E12C" fall at or above the 3 mark?
Result: 0.0

Problem: Determine whether this variant has protein stability index no lower than 3: "S21Y"
Result: 0.0

Problem: State whether the measured protein stability index reaches 3, counting equality as reaching it, for "F3Q"
Result: 1.0

Problem: Hi team, for "F1E" , is the recorded protein stability index at or above 3?
Result: 1.0
